In this section we review reported IC50 values for a set of molecules.
# study_target: ABCG2 (Homo sapiens, UniProt Q9UNQ0)
# Sequence (Q9UNQ0 whole entry): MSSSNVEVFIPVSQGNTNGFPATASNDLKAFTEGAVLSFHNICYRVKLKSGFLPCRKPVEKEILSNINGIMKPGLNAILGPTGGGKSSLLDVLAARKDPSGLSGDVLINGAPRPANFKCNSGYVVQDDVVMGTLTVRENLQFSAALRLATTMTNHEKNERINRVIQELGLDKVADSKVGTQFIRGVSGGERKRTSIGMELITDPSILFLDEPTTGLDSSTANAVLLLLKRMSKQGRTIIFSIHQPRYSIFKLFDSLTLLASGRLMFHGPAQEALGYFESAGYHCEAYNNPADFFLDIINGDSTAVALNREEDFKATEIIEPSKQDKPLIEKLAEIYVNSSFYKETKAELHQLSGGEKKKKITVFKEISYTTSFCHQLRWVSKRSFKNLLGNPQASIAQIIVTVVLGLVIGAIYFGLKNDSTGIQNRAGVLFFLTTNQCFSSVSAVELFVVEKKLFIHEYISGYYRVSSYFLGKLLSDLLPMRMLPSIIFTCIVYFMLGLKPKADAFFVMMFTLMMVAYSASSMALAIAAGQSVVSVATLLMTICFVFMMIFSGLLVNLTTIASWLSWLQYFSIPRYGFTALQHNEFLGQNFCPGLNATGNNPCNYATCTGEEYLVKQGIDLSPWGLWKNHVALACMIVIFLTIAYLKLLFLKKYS
# protocol_summary: BLI D-luciferin efflux inhibition in HEK293/ABCG2/fLuc cells
Where a name gives a salt, the structure may show the parent alone.

Worked set:
COc1cc2nc(N3CCN(C(=O)C4COc5ccccc5O4)CC3)nc(N)c2cc1OC (stereo not drawn) [doxazosin mesylate]	~8 µM
COc1cc(N)c(Cl)cc1C(=O)NC1CCN(Cc2ccccc2)CC1 [clebopride maleate]	~8.2 µM

Moving on to the next molecule.
Query Cc1c(-c2ccccc2)oc2c(C(=O)OCCN3CCCCC3)cccc2c1=O [flavoxate hydrochloride] yields IC50 of ~20 µM
